measured-target: T1, GST-ZO1-PDZ2 WT (human, UniProt Q07157 186-264)
T1 sequence: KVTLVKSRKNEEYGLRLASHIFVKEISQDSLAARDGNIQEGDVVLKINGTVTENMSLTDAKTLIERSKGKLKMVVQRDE
assay-text: ITC
recorded-endpoint: pKd
// returns pKd (minus log10 of molar concentration), number only

*Q* Which pKd value is on record for PSSRASSRASSRPRPDDLEI [Connexin 43 (Cx43) C-terminal peptide] ?
*A* 5.00
